The values you see were collected from patent CN111303279A.

target: SARS-CoV-2病毒的包膜刺突糖蛋白(即S蛋白) (SARS-CoV-2, UniProt P0DTC2 14-1273); assay: cell-based or functional assay
measurement-label: 抑制SARS-CoV-2假型病毒感染 IC50 (luciferase, Calu-3细胞)
Note to self: number, then unit, no commentary.

Input 单域抗体2F2 (VHH) VHH: QVQLVESGGGLVQPGGSLRLSCAASGLAQSKWAYGWFRQAPGKGLEAVAAIDVATGPWYYADSVKGRFTISRDNSKNTLYLQMNSLRAEDTAVYYCAAHHIPTKHPAFPDFRDYWGQGTQVTVSS . Output 抑制SARS-CoV-2假型病毒感染 IC50 (luciferase, Calu-3细胞): 0.0235 µg/mL

Input 单域抗体4D8 (VHH) VHH: QVQLVESGGGLVQPGGSLRLSCAASGNIDSTRYHGWFRQAPGKGLEAVAAIKGVWPEDYYADSVKGRFTISRDNSKNTLYLQMNSLRAEDTAVYYCAADQYEWWVPGEVGPYLYWGQGTQVTVSS . Output 抑制SARS-CoV-2假型病毒感染 IC50 (luciferase, Calu-3细胞): 0.247 µg/mL

Input 单域抗体3F11 (VHH) VHH: QVQLVESGGGLVQPGGSLRLSCAASGGNAAERMAGWFRQAPGKGLEAVAAIYYAKFGPYYADSVKGRFTISRDNSKNTLYLQMNSLRAEDTAVYYCAAEAFVQSPYSGSHTTKYWGQGTQVTVSS . Output 抑制SARS-CoV-2假型病毒感染 IC50 (luciferase, Calu-3细胞): 0.0038 µg/mL

Input 单域抗体5F8 (VHH) VHH: QVQLVESGGGLVQPGGSLRLSCAASGRQAVVFGWFRQAPGKGLEAVAAIHVPAKNRYYADSVKGRFTISRDNSKNTLYLQMNSLRAEDTAVYYCAAHYEFNDFVWQGYSSDYWGQGTQVTVSS . Output 抑制SARS-CoV-2假型病毒感染 IC50 (luciferase, Calu-3细胞): 0.00338 µg/mL

Input 单域抗体1E2 (VHH) VHH: QVQLVESGGGLVQPGGSLRLSCAASGADAFVIIGGWFRQAPGKGLEAVAAIAWTDQHEYYADSVKGRFTISRDNSKNTLYLQMNSLRAEDTAVYYCAAQDSAYIKSKGSRAYEYWGQGTQVTVSS . Output 抑制SARS-CoV-2假型病毒感染 IC50 (luciferase, Calu-3细胞): 0.31 µg/mL
